For each of the sequences below, state its soluble fraction (log2).
Experiment: soluble fraction after stress (log2 fold change); higher = more stays soluble; pooled small domains, quantitative proteomics;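 further: 20 min heating vs room temperature control held 20 min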
Details: stress: 75 degC
Answers are plain numbers.

CHAIN SEQUENCE: HMKDYKTIFQELIQKKHKTSPIYKSYEYNDMFKAEVYVNDKSFADGIGKSKKEAETDAAKKALEKIEMA
ENDPOINT LABEL: soluble fraction (log2)
VALUE MEASURED: -0.0428

CHAIN SEQUENCE: HMDADTVGQIRVVKQILDDGRLIVVDASGNPVLVRRSSALSLTAISQGDRIIVDPSVRLAIELLPNE
ENDPOINT LABEL: soluble fraction (log2)
VALUE MEASURED: -0.637

CHAIN SEQUENCE: HMTPDVAEFRERLRQILPGEQIEVRTANDGIVLSGTVSSIARLDAALQLAERYAPSRVSNLMSVG
ENDPOINT LABEL: soluble fraction (log2)
VALUE MEASURED: 0.00274

CHAIN SEQUENCE: HMDLRAPKPIKEMGEEYIKLYQYLRKGESENIVMSKMNISLDDYDYMRSEIEDKLSLYNMLDLLRKP
ENDPOINT LABEL: soluble fraction (log2)
VALUE MEASURED: -0.978

CHAIN SEQUENCE: HMNTTTTKVVSVSSLNMRSGPSTSYNIIEVLTKDTQVEVISVEDGWAKIKYNSKTGYVSNQYLSDKK
ENDPOINT LABEL: soluble fraction (log2)
VALUE MEASURED: -0.934

CHAIN SEQUENCE: HMSDPSAQADALFNEGKTAEAFNVLLRLIEDSPEDQREDYRVRLLDLFRIAGNTPEVKAARRRLSALLM
ENDPOINT LABEL: soluble fraction (log2)
VALUE MEASURED: -0.237

CHAIN SEQUENCE: HMLLPGEELRVMIIQEGKEYGQGVGYLDDGTMVVVEDGQRALNRTENVVVTKVLQTTAGRMIFAK
ENDPOINT LABEL: soluble fraction (log2)
VALUE MEASURED: -0.71

CHAIN SEQUENCE: HMPAAKARTWQEATHAFQRDFLLETLRRARFNAADAADQLGLARPALYTTAKRLGLDLVAERQRWEAEAH
ENDPOINT LABEL: soluble fraction (log2)
VALUE MEASURED: -0.668

Batch request: soluble fraction (log2) for each of the following sequences.
1. HMGHASPGNREALQFALERHQARAAEFAEKAGLSIANASTKFKQLWEQGFLMRNESVADSGGVEFLYQR
2. HMSKTQYTFKEVGSQFQLFAPSTKHTIMISADHPKYGWLTNQDQGRVINVYDTGKMTSSQDYYGLYKEVT
3. HMDREILWTNYVAARKQEFIASSIDTIGAEYLDNRRFWDTQFEREWTIIAERLASGFGLTDDILSIVGSDF
4. HMSRDYKTELQERLQVNGPVKIEYQVIAEDESKPSFKVQLLVNDKKISEGQGRNKKAAEQQAAQAAL
5. HMTTIKLTQEDVEKIKSLPKRTFLIGNLQQTGLYDEKTRRFYYLDANGEWNGRLAIINTPPPPPPPP
6. HMPEQLLNTRIPLEFAGRRFDASLAELFPDYSRSRLAAWIKDGAARLDGETVAPRHTVRGGEQVEILVRM
7. HMTYQTVRYGSTGSAVRQLQSALNQKGYQLSEDGIFGAKTRAAVRDYQKKNGLLLDGIAGSQTWNHLMS
8. HMTKMTPNRQLVLSVLQSSGKPLSAYELLDRLREQGTQWQPPTAYRALDYLVEQGLAHYLQSIQKYV

1. -0.113
2. 0.587
3. -4.12
4. 0.0103
5. 0.0273
6. -0.729
7. -0.179
8. -1.73

---

Test: soluble fraction after stress (log2 fold change); higher = more stays soluble; pooled small domains, quantitative proteomics
Settings: stress: 75 degC
For each of the sequences below, state its soluble fraction (log2).

Recorded results for 5 sequences are shown here.
CHAIN SEQUENCE: HMGALARLLASVEQELGVTRDRMTRTQKQEAVTLLNEWGAFTLRKSVEDVAEALGVSRFTVYNYLERAEA
ENDPOINT LABEL: soluble fraction (log2)
VALUE MEASURED: -2.99

CHAIN SEQUENCE: HMSKQVDVVIYILENTKAADNTYIGTYRKTADGAGVSLDTATKVMRKLQENNFIKKVQNGVYQISPLIMM
ENDPOINT LABEL: soluble fraction (log2)
VALUE MEASURED: -1.42

CHAIN SEQUENCE: HMKFNLWLSEKLKKLGLTQRKLAEQAGVSPATVSRWLSGEFEPDLTNLRKINQVLGVPERELFLQLGL
ENDPOINT LABEL: soluble fraction (log2)
VALUE MEASURED: -0.193

CHAIN SEQUENCE: HMSANVSMEEALRRTSQAHSLAGKWMRRVLQMAQGRDLIEQMQREAQEAHLPELIGMSVQLEFIRRG
ENDPOINT LABEL: soluble fraction (log2)
VALUE MEASURED: -0.107

CHAIN SEQUENCE: HMISADSSKVDTLVQVYSNMKPIQAAQVFEKMDEDLVIEILSRMKKKNAADILNLIKTEKAQVFAEKYA
ENDPOINT LABEL: soluble fraction (log2)
VALUE MEASURED: -0.109

Batch request: soluble fraction (log2) for each of the following sequences.
1. HMVSAMLLHKKEILNLLAEEPEALHFASLLRAFGGRHIKNELKQIVDDLVRSGEILRLRGNRYTLPGADN
2. HMSNLNHSFQYKKNIGRKISLTYLGRDNESISKIYELIDSNDSGILVKNKNVEIFIHYEKIVSAKIKVS
3. HMKYLREEDYLPIGSIIRLDDRNFRVDHVNFMFKSVSLQDMDLTNSGQPIFRSESLPHIRELYEQQQNELV
4. HMSVTYRLLITSSPGQAEVFLDGKRVGITPFSARLAAGWYQVRVSKEGYNLWEQHVQLREDQRLTATLT
5. HMRRARVAGKGHFTGEDAMAVYRELEALFGETETLYLPGHRPFEAVLSKLALIGVPEKNTVPYTFAFVET

1: -1.5; 2: -1.78; 3: -0.877; 4: -3.17; 5: -0.392

Batch request: soluble fraction (log2) for each of the following sequences.
1. HMNYSKQRETILKVLRSTRSHPSVNWIYENVKKEIPDVGLATVYRNLKQLEAAGEIMRIQGDFPEERWDGF
2. HMGEKVIAVSGGFDPIHVGHLRMMQDAAQHGRLVVIVNSDEWLLKKKGYVFMPWEERAELIGAYDFVDE

-1.65
-0.964

Batch request: soluble fraction (log2) for each of the following sequences.
1. HMQEESISWKEFLELDIIGDKKKRLKVYDLFHLGYGNAKTLFKRLNMVGISREMIEKELENEGY
2. HMENTSPMTPEQSKALMAYLTKRHGDSREAYLSELSQFFGRPLSSSRELTKADVSEFLNAIN

1. -1.39
2. 0.0561

---

Assay: soluble fraction after stress (log2 fold change); higher = more stays soluble; pooled small domains, quantitative proteomics
Conditions: stress: 75 degC
For each of the sequences below, state its soluble fraction (log2).

Batch request: soluble fraction (log2) for each of the following sequences.
1. HMDGVSLLFKLMETLPEQQKTILHLRDVEQLEFAEIAKITNTSQANVRVALSRARKKIKDLLLKQY
2. HMNRNEFMERLEYLLSDIPQEEKADAIAYYRDYLEEAGDDAGKAIQDFGSPERIAAMIRSELAG
3. HMTIAFPSNDVDAVVGYFESRGFDRTASISTATVILQQAKIDGVKVFELIDTLQGMDKVQLSYIVTEILN
4. HMNSVAASLREISIKVSGTEDADKVSRLQELSQMPKLDASGIAEANTLLEQLRAKYGDLGLSVDTARGRIV
5. HMKRANGTGSVFKLNGKRRNPWVARVTQGFDDKGRQKYVNLGYYKTKREAENELLSYNSNPYDAN
6. HMDPNFKYIIRIANSDVSGEQKLAYALTSIRGIGERTSNAIIQKLGLDSTQLAGKLTDKNVEDIESA
7. HMDPLADLFSRIRNAQMRNKKVVTSPASKLRAGILEVLAKEGYIRGYAMTQHASGKNELDIELN

-2.52
-0.0288
0.0608
0.494
-0.238
0.092
-1.05

---

Test: soluble fraction after stress (log2 fold change); higher = more stays soluble; pooled small domains, quantitative proteomics
Details: stress: 75 degC
Response field class: enum, chosen by comparing soluble fraction (log2) against small value: < -1; mid value: ≥ -1 and < -0.4; large value: ≥ -0.4

# example entries with known answers
CHAIN SEQUENCE: HMGTRPIQIASFSKEENAKRAVEALAKIGITAQPQKSGSATKAVWGVVANGDADLLAKIKAAGFADAYFL
ASSIGNED CATEGORY: large value

CHAIN SEQUENCE: HMPSSIEGIEKYLGSGMIRGIGAVYAKRLVKQFGKDVFDIIEETPERLREVEGIGPIRAARIISGWADQ
ASSIGNED CATEGORY: large value

CHAIN SEQUENCE: HMKVLNVLESEIVRLFKQGQQKDNIRDNIYKTHGQHYNNKKSFNVVFGRKWNSLLEQGFLES
ASSIGNED CATEGORY: small value

Dear colleague, I would appreciate it if you could identify the bin for HMSLDAAAVASKLIKRLSKSPGRRFALDDLAVDVGLPHEQGRPLVRSALELLVRTQQAVEGPPNVFRLFF and reply at your convenience.
small value
